This document collects pIC50 values reported for His6-TEV-PDGFRβ (557-1016) (Homo sapiens (Human)).
Numbers only, as −log10 of the molar value.

{"MOLECULE": "Cc1ncc(NC(=O)CN2CCC3(CCO3)CC2)cc1NC(=O)c1cnn2cc(-c3cnn(C)c3)sc12 [Example 81]", "pIC50": 8.55}
{"MOLECULE": "COC1CN(CC(=O)Nc2cnc(C)c(NC(=O)c3cnn4cc(-c5cn(C)nc5C)sc34)c2)C1 [Example 441]", "pIC50": 9.15}

Provide pIC50 values for the following items, in order.
1. COc1ncccc1-c1cn2ncc(C(=O)Nc3cc(NC(=O)CN4C[C@H](CO)OC(C)(C)C4)cnc3C)c2s1 [Example 379]
2. Cc1ncc(NC(=O)[C@@H]2CCCN2C(C)C)cc1NC(=O)c1cnn2cc(-c3cnn4c3OCCC4)sc12 [Example 346]
3. Cc1ncc(NC(=O)CN2CCC[C@H]2C)cc1NC(=O)c1cnn2cc(-c3cnn(C)c3)sc12 [Example 26]
4. COCCn1cc(-c2cn3ncc(C(=O)Nc4cc(NC(=O)CN5CCCC56CCC6)cnc4C)c3s2)cn1 [Example 332]
5. Cc1ncc(NC(=O)CN2CCCC2(C)C)cc1NC(=O)c1cnn2cc(-c3cnn(C)c3)sc12 [Example 13]
6. Cc1ncc(C(=O)NCCN2CCCC2(C)C)cc1NC(=O)c1cnn2cc(-c3cccc(C(=O)O)c3)sc12 [Example 134]
7. Cc1ncc(NC(=O)CN2C3CCC2COC3)cc1NC(=O)c1cnn2cc(-c3cnn(C)c3)sc12 [Example 44]

*A*
1. 9.40
2. 9.30
3. 9.10
4. 9.22
5. 9.30
6. 8.54
7. 8.89

Provide pIC50 values for the following items, in order.
1. Cc1cc(C(=O)NCCN2CCOCC23CC3)sc1NC(=O)c1cnn2cc(-c3cnn(C)c3)sc12 [Example 197]
2. Cc1ncc(NC(=O)CCCN2CCC23CCC3)cc1NC(=O)c1cnn2cc(-c3cnn(C)c3)sc12 [Example 215]

*A*
1. 7.94
2. 9.30

###

# SUBJECT OF TEST: Tb-labeled inactive PDGFRβ (Homo sapiens (Human), UniProt P09619)
# Sequence (P09619 33-1106): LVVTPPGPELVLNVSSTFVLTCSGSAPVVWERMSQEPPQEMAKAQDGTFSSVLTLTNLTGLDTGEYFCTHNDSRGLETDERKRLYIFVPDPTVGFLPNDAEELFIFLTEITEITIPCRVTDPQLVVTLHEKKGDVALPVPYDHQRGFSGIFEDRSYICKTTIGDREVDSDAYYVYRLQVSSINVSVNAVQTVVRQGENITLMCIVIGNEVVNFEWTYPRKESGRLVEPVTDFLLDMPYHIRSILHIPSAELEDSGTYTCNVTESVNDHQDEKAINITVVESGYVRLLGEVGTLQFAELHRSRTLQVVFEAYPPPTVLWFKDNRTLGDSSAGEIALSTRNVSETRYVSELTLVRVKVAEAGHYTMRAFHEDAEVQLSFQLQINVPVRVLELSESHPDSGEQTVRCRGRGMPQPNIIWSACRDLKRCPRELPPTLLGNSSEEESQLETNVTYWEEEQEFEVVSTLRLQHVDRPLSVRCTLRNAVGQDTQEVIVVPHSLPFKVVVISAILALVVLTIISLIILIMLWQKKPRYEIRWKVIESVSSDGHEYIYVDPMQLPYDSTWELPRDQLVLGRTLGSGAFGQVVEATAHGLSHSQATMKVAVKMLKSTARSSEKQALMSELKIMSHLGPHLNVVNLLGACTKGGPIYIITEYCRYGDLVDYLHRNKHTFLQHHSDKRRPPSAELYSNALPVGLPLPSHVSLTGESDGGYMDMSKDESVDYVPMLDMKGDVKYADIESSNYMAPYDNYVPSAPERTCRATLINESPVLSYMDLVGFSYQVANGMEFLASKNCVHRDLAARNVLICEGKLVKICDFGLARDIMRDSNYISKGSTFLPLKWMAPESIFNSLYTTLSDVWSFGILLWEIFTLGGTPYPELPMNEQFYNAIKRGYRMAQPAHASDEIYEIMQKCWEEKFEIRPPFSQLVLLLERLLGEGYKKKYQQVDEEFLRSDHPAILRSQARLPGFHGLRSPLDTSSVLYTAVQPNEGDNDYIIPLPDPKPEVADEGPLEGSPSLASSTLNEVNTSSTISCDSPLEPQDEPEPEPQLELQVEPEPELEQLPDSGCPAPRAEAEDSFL
# METHOD DESCRIPTION: PDGFRβ LanthaScreen Assay
# RUN CONDITIONS: read-out: PDGFR Lantha IC50
Please respond with reported IC50 for every item in the list.
Numbers only, in nM.

Provide IC50 values for the following items, in order.
1. Cc1ncc(C(=O)NCCN2CC(F)(F)C2)cc1NC(=O)c1cnn2cc(-c3ccncc3)sc12 [Example 152]
2. Cc1ncc(NC(=O)CN2Cc3ccncc3C2)cc1NC(=O)c1cnn2cc(-c3cnn(C)c3)sc12 [Example 77]
3. COCCn1cc(-c2cn3ncc(C(=O)Nc4cc(C(=O)NCCN5CC(C)(C)C5)cnc4C)c3s2)cn1 [Example 166]
4. Cc1ncc(C(=O)NCCN2CCCC2(C)C)cc1NC(=O)c1cnn2cc(-c3cnn(C)c3C)sc12 [Example 173]
5. Cc1ncc(NC(=O)OC[C@@H]2CCCN2C)cc1NC(=O)c1cnn2cc(-c3cn(C)nc3C)sc12 [Example 496]

*A*
12.4
15.9
13.9
3.1
2.8

Provide IC50 values for the following items, in order.
1. Cc1ncc(C(=O)N2CC2CNC(C)(C)C)cc1NC(=O)c1cnn2cc(-c3cccc4c3cnn4C)sc12 (stereo not shown) [Example 239]
2. Cc1ncc(C(=O)NCCN(CCO)CC2CCCCC2)cc1NC(=O)c1cnn2cc(-c3cnn(C)c3)sc12 [Example 235]

*A*
78.7
5.2

###

# SUBJECT OF TEST: Tb-labeled inactive PDGFRβ (Homo sapiens (Human), UniProt P09619)
# METHOD DESCRIPTION: PDGFRβ LanthaScreen Assay
# RUN CONDITIONS: read-out: PDGFR Lantha IC50
pIC50: −log10 of the molar value.
Use 8 as the dividing line for pIC50, with the line itself on the 1 side and lower values as 0.

Some entries whose results are on file:
{"COMPOUND": "COc1ncccc1-c1cn2ncc(C(=O)Nc3cc(NC(=O)C4CCCCN4C(C)C)cnc3C)c2s1 (stereo not shown)", "LABEL CLASS": 1}
{"COMPOUND": "Cc1ncc(C(=O)NCCN2CC3CCC2CC3)cc1NC(=O)c1cnn2cc(-c3cnn4c3OCCC4)sc12", "LABEL CLASS": 1}

*Q* hey, is pIC50 for this one >= 8? Cc1ncc(C(=O)NCCN2CCCC2(C)C)cc1NC(=O)c1cnn2cc(-c3ccn(C)n3)sc12
*A* 1

*Q* hey, is pIC50 for this one >= 8? COc1cccc(-c2cn3ncc(C(=O)Nc4cc(NC(=O)CN5CC(C)(C)C5)cnc4C)c3s2)n1
*A* 1

*Q* hey, is pIC50 for this one >= 8? Cc1ncc(NC(=O)CN2CC(C)(C)C2)cc1NC(=O)c1cnn2cc(-c3ccnnc3C)sc12
*A* 0

*Q* hey, is pIC50 for this one >= 8? Cc1ncc(NC(=O)CN2CC3CC(C2)O3)cc1NC(=O)c1cnn2cc(-c3cnn(C)c3)sc12
*A* 0

###

This document collects pIC50 values reported for His6-TEV-PDGFRβ (557-1016) (Homo sapiens (Human)).
Numbers only, as −log10 of the molar value.

The cases that follow already have their pIC50 on record.
{"MOLECULE": "Cc1ncc(NC(=O)CN2CC3(CCCCO3)C2)cc1NC(=O)c1cnn2cc(-c3cnn4c3CCC4)sc12 [Example 424]", "OBSERVABLE": "pIC50", "QUANTITATIVE READOUT": 9.52}
{"MOLECULE": "Cc1ncc(C(=O)NCCN2CC3CC(C3)C2)cc1NC(=O)c1cnn2cc(-c3cnn(C)c3)sc12 [Example 5]", "OBSERVABLE": "pIC50", "QUANTITATIVE READOUT": 9.40}
{"MOLECULE": "Cc1ncc(NC(=O)C[C@@H]2CCCCN2C(C)C)cc1NC(=O)c1cnn2cc(-c3cnn(C)c3)sc12 [Example 305]", "OBSERVABLE": "pIC50", "QUANTITATIVE READOUT": 8.68}
{"MOLECULE": "Cc1ncc(NC(=O)CN2C[C@H](C)O[C@@H](C)C2)cc1NC(=O)c1cnn2cc(-c3cc[nH]n3)sc12 (relative stereo) [Example 374]", "OBSERVABLE": "pIC50", "QUANTITATIVE READOUT": 9.40}
{"MOLECULE": "Cc1ncc(NC(=O)C[C@H]2CCCN2C(C)C)cc1NC(=O)c1cnn2cc(-c3cnn4c3OCCC4)sc12 [Example 351]", "OBSERVABLE": "pIC50", "QUANTITATIVE READOUT": 9.52}
{"MOLECULE": "Cc1ncc(C(=O)NCCN2C3CCC2CC3)cc1NC(=O)c1cnn2cc(-c3cnn(C)c3C)sc12 [Example 172]", "OBSERVABLE": "pIC50", "QUANTITATIVE READOUT": 9.52}

Next:
*Q* Consider the molecule Cc1ncc(NC(=O)CCN2CCCC2(C)C)cc1NC(=O)c1cnn2cc(-c3cnn(C)c3)sc12 [Example 42] . State its measured pIC50.
*A* 9.55

###

Please respond with reported pIC50 for every item in the list.
# SUBJECT OF TEST: VEGFR2, unphosphorylated (Homo sapiens (Human))
# Sequence (P35968 20-1356): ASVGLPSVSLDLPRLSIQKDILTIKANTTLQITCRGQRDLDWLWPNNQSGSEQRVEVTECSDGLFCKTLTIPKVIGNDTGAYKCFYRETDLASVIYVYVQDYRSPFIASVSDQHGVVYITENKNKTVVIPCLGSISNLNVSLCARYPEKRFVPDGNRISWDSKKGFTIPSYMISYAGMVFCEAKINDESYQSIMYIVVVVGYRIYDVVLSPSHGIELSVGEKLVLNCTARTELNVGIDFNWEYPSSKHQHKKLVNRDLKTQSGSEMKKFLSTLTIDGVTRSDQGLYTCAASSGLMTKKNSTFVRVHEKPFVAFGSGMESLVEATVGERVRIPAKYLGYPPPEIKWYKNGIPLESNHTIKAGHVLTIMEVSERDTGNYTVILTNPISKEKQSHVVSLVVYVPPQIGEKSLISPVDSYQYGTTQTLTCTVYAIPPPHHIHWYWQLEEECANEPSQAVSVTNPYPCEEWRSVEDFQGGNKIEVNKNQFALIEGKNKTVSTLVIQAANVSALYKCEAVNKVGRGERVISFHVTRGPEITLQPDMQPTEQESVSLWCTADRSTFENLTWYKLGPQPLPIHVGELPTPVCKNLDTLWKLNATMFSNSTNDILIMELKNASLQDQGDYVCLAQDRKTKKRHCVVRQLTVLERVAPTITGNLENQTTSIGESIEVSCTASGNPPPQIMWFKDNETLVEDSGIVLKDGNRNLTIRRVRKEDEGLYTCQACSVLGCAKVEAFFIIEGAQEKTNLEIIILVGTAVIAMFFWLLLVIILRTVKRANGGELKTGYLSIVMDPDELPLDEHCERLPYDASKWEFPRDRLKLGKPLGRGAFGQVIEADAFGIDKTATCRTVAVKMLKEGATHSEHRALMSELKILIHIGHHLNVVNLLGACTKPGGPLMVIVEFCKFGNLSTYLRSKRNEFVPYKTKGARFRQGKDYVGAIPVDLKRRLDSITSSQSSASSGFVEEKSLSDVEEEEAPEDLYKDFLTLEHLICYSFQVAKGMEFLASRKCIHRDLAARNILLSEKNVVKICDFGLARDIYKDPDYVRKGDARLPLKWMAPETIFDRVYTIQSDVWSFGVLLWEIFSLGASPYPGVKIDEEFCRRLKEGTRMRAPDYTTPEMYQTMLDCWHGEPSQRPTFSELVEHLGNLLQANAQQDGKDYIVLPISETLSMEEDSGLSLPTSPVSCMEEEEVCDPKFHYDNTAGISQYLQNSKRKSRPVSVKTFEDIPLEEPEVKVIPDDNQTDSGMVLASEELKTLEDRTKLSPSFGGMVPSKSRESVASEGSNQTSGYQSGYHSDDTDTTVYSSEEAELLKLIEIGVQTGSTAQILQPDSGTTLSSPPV
# METHOD DESCRIPTION: VEGFR ADP GLO Assay
pIC50: −log10 of the molar value.

{"MOLECULE": "Cc1ncc(C(=O)NCCN2CC3CCC2CC3)cc1NC(=O)c1cnn2cc(-c3ccncc3)sc12 [Example 148]", "OBSERVABLE": "pIC50", "RESULT": "< 5.12"}

Provide pIC50 values for the following items, in order.
1. Cc1ncc(C(=O)NCCN2CC3CCC2CC3)cc1NC(=O)c1cnn2cc(-c3cn(C)nc3C)sc12 [Example 178]
2. Cc1ncc(NC(=O)CN2CCCC2(C)C)cc1NC(=O)c1cnn2cc(-c3cccn(CCF)c3=O)sc12 [Example 449]
3. Cc1ncc(NC(=O)CNC2CCCC2)cc1NC(=O)c1cnn2cc(-c3cnn4c3CCC4)sc12 [Example 422]
4. COc1ncccc1-c1cn2ncc(C(=O)Nc3cc(NC(=O)CN4CCOCC45CCC5)cnc3C)c2s1 [Example 310]
5. Cc1ncc(C(=O)NCCN2CCOCC23CC3)cc1NC(=O)c1cnn2cc(-c3cnn(C)c3)sc12 [Example 110]

*A*
1. < 5.12
2. < 5.12
3. < 5.12
4. < 5.12
5. 6.18

*Q* Consider the molecule COCCN(CCNC(=O)c1cnc(C)c(NC(=O)c2cnn3cc(-c4cnn(C)c4)sc23)c1)CCOC [Example 128] . State its measured pIC50.
*A* < 5.12

Data origin, for the record: patent US20240109917A1
